Each entry below carries its reported GI50.
# Tested on: COLO 205 colon
# ASSAY_SUMMARY: NCI tumour cell line growth inhibition, 48 h
OUTCOME_MEASURE: GI50

[[record]]
compound = "C=CC(=O)N1CC2(CC(n3nc(-c4ccc(Oc5ccccc5)cc4)c4c(N)ncnc43)C2)C1"
tested_system = "COLO 205 colon"
outcome_measure = "GI50"
result = "1.46 µM"

[[record]]
compound = "O=C1c2ccccc2-c2c1c1c(O)cccc1n2CCCc1ccccc1"
tested_system = "COLO 205 colon"
outcome_measure = "GI50"
result = "17.8 µM"

[[record]]
compound = "O=Cc1c[nH]c2ccc(-c3csc4ccccc34)cc12"
tested_system = "COLO 205 colon"
outcome_measure = "GI50"
result = "4.46 µM"

[[record]]
compound = "CCOP(=O)(CCN1CCN(CCCCCOc2cc3c(cc2OC)C(=O)N2CCC[C@H]2C=N3)CC1)OCC"
tested_system = "COLO 205 colon"
outcome_measure = "GI50"
result = "3.39 µM"

[[record]]
compound = "Nc1cccc2c1CN(C1CCC(=O)NC1=O)C2=O (stereo not given)"
tested_system = "COLO 205 colon"
outcome_measure = "GI50"
result = "> 100 µM"


----------
# Test system: CAKI-1 renal
# ASSAY_SUMMARY: NCI tumour cell line growth inhibition, 48 h
Each entry below carries its reported TGI.
OUTCOME_MEASURE: TGI (µM)

[[record]]
compound = "NC(Cc1ccc(O)cc1)C(=O)N/N=C/c1ccc(N(CCCl)CCCl)cc1 (stereo not given)"
outcome_measure = "TGI"
reported_relation = "="
numeric_value = 18.4

[[record]]
compound = "CN=c1ss/c(=N\\C(=S)N(C)C)n1C1CCCCC1"
outcome_measure = "TGI"
reported_relation = ">"
numeric_value = 31.6

[[record]]
compound = "Cc1ccccc1C(=O)NC(O)(C(F)(F)F)C(F)(F)F"
outcome_measure = "TGI"
reported_relation = ">"
numeric_value = 100

[[record]]
compound = "COC(=O)c1ccc(-n2c(C)nc(=O)c(-c3ccccc3)c2C)cc1"
outcome_measure = "TGI"
reported_relation = ">"
numeric_value = 100

[[record]]
compound = "CC(C)(C)C1CCC(CI)(N=[N+]=[N-])CC1 (stereo not given)"
outcome_measure = "TGI"
reported_relation = ">"
numeric_value = 100

[[record]]
compound = "O=C(O)c1cccc(S(=O)(=O)NN2C(=O)CSC2c2ccccc2Cl)c1 (stereo not given)"
outcome_measure = "TGI"
reported_relation = ">"
numeric_value = 100

[[record]]
compound = "Cc1ccc(SC2C(C)(C)N(C(C)C)P2(=O)N(C(C)C)C(C)C)cc1 (stereo not given)"
outcome_measure = "TGI"
reported_relation = ">"
numeric_value = 100

[[record]]
compound = "O=S(=O)(c1ccccc1)[C@@H]1[C@H]2C=C[C@](CS)(O2)[C@H]1S(=O)(=O)c1ccccc1"
outcome_measure = "TGI"
reported_relation = "="
numeric_value = 92.3

[[record]]
compound = "N#Cc1ccc(N2Cc3cc(Cl)ccc3OC3=C2C(=O)N(Cc2ccc(F)cc2)C3=O)cc1"
outcome_measure = "TGI"
reported_relation = "="
numeric_value = 0.38

[[record]]
compound = "O=C(OCC(Cl)(Cl)Cl)N1CC[C@@H](C2CCCCC2)C1"
outcome_measure = "TGI"
reported_relation = "="
numeric_value = 76.5

